# Tested on: osteoclasts cultured on bone slices
# procedure_summary: In vitro bone resorption assay (osteoclasts on bovine bone slices, CrossLaps)
# Format: cell-based, rat
# condition_notes: tables 1 and 2 combined, number 12; LA number = ng/ml lanthanum; Control = Baseline+10 nM bafilomycin Al
readout_kind: Combined results on bone resorption (relative medium CrossLaps per osteoclast), Mean ± SD
Keep it simple and answer with nothing but the number.

Examples from the recorded data:
* O.O.O.O.O=C([O-])[O-].O=C([O-])[O-].O=C([O-])[O-].[La+3].[La+3] [LA 500, lanthanum carbonate tetrahydrate] | 0.88
* O.O.O.O.O=C([O-])[O-].O=C([O-])[O-].O=C([O-])[O-].[La+3].[La+3] [LA 100, lanthanum carbonate tetrahydrate] | 0.74
* O.O.O.O.O=C([O-])[O-].O=C([O-])[O-].O=C([O-])[O-].[La+3].[La+3] [LA 15000, lanthanum carbonate tetrahydrate] | 0.84
* O.O.O.O.O=C([O-])[O-].O=C([O-])[O-].O=C([O-])[O-].[La+3].[La+3] [LA 1000, lanthanum carbonate tetrahydrate] | 1.15

For the next question, use this molecule.
Query string: Field: Combined results on bone resorption (relative medium CrossLaps per osteoclast), Mean ± SD (osteoclasts cultured on bone slices). Entry: O.O.O.O.O=C([O-])[O-].O=C([O-])[O-].O=C([O-])[O-].[La+3].[La+3] [LA 5000, lanthanum carbonate tetrahydrate]
Result string: 1.27

All figures here come from patent US7078059B2.
